Experimental target: T1, BMP4 (human)
T1 chain: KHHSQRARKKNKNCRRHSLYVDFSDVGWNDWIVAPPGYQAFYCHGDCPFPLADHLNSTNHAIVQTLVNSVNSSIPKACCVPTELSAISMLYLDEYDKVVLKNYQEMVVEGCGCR
Test summary: SPR
pKd: −log10 of the molar value.
Measured parameter: pKd

Binder: hNoggin (protein) QHYLHIRPAPSDNLPLVDLIEHPDPIFDPKEKDLNETLLRSLLGGHYDPGFMATSPPEDRPGGGGGAAGGAEDLAELDQLLRQRPSGAMPSEIKGLEFSEGLAQGKKQRLSKKLRRKLQMWLWSQTFCPVLYAWNDLGSRFWPRYVKVGSCFSKRSCSVPEGMVCKPSKSVHLTVLRWRCQRRGGQRCGWIPIQYPIISECKCSC
Measured parameter: pKd
Numeric result: 10.04

A = BMPR1a (protein) QNLDSMLHGTGMKSDSDQKKSENGVTLAPEDTLPFLKCYCSGHCPDDAINNTCITNGHCFAIIEEDDQGETTLASGCMKYEGSDFQCKDSPKAQLRRTIECCRTNLCNQYLQPTLPPVVIGPFFDGSIR
B = C8 (antibody, V domains shown) VH: EVQLVESGGGLVQAGGSLRLSCAASGRTFRINDMGWYRQAPGKSRDMVARITSGGNTNYADSVKGRFTISRDNAKNTVYLQMNSLKPEDTAVYYCNADGLRFDSTRYRPFDSWGQGTQVTVSS
**Query** Lab note: check whether A or B has the lower measured pKd. Kindly state the label of the option you pick.
**Result** A
